Test system: Receptor-type tyrosine-protein kinase FLT3 (Homo sapiens), P36888 [UNDEFINED MUTATION]
Sequence (P36888 whole entry, looked up, change not shown): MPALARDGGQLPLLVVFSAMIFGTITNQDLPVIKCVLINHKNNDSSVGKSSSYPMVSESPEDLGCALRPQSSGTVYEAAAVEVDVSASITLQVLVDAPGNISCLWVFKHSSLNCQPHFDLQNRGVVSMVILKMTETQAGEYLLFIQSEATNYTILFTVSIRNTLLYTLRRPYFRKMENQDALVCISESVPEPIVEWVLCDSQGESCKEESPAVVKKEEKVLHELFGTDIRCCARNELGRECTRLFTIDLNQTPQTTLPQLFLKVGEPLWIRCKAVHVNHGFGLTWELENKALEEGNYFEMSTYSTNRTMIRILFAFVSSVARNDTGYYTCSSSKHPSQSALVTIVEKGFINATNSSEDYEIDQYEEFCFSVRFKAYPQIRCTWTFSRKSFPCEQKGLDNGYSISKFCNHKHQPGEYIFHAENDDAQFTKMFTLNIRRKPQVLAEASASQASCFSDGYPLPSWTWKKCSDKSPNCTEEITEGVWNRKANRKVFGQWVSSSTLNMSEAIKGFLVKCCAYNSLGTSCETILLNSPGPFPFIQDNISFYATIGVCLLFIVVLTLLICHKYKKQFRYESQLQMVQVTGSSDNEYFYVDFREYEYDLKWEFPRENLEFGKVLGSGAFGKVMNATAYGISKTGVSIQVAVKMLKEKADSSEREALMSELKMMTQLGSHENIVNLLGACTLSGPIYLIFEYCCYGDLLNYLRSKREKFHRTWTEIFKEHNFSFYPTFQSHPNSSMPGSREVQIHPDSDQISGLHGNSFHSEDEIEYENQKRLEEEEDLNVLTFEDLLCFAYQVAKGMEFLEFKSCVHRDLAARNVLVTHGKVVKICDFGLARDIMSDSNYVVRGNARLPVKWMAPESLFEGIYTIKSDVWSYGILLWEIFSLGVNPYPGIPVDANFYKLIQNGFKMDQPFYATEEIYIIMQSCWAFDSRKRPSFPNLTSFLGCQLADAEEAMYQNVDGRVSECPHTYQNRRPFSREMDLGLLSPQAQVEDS
Assay: Inhibition of FLT3 ITD mutant (unknown origin) using TAMRA-Src- tide as substrate at 1.25 uM after 1 hr by fluorescence polarization assay relative to control
If the reported inhibition equals or exceeds 60%, assign True. If not, assign False.

Examples from the recorded data:
1) COC(=O)CC[C@H](NC(=O)c1c(C)[nH]c(/C=C2\C(=O)Nc3ccc(C(=O)O)cc32)c1C)C(=O)OC :: True
2) COC(=O)CC[C@H](NC(=O)c1c(C)[nH]c(/C=C2\C(=O)Nc3ccc(C(=O)N[C@H](CCC(=O)OC)C(=O)OC)cc32)c1C)C(=O)OC :: True
3) COC(=O)CC[C@@H](NC(=O)c1c(C)[nH]c(/C=C2\C(=O)Nc3ccc(C(=O)N[C@@H](Cc4ccccc4)C(=O)OC)cc32)c1C)C(=O)OC :: False

Problem: Please indicate if the recorded inhibition for COC(=O)[C@@H](Cc1ccccc1)NC(=O)c1c(C)[nH]c(/C=C2\C(=O)Nc3ccc(C(=O)N[C@@H](Cc4ccccc4)C(=O)O)cc32)c1C meets or exceeds 60%.
Solution: True

---

Tested on: Receptor-type tyrosine-protein kinase FLT3 (Homo sapiens), P36888 [UNDEFINED MUTATION]
Test: Inhibition of FLT3 ITD mutant (unknown origin) using TAMRA-Src- tide as substrate at 1.25 uM after 1 hr by fluorescence polarization assay relative to control
Reported inhibition values follow for various compounds
// note: answer is a bare numeric in %

Use the examples below as a reference point.
1) COC(=O)CC[C@@H](NC(=O)c1ccc2c(c1)/C(=C/c1[nH]c(C)c(C(=O)N[C@H](Cc3ccccc3)C(=O)O)c1C)C(=O)N2)C(=O)OC :: 73
2) COC(=O)[C@H](Cc1ccccc1)NC(=O)c1c(C)[nH]c(/C=C2\C(=O)Nc3ccc(C(=O)N[C@H](Cc4ccccc4)C(=O)OC)cc32)c1C :: 29
3) COC(=O)CC[C@@H](NC(=O)c1ccc2c(c1)/C(=C/c1[nH]c(C)c(C(=O)N[C@@H](Cc3ccccc3)C(=O)O)c1C)C(=O)N2)C(=O)OC :: 67.7
4) COC(=O)[C@H](Cc1ccccc1)NC(=O)c1ccc2c(c1)/C(=C/c1[nH]c(C)c(C(=O)N[C@@H](Cc3ccccc3)C(=O)O)c1C)C(=O)N2 :: 58.6

Problem: Quick one: inhibition of COC(=O)[C@H](Cc1ccccc1)NC(=O)c1ccc2c(c1)/C(=C/c1[nH]c(C)c(C(=O)N[C@H](Cc3ccccc3)C(=O)OC)c1C)C(=O)N2 ?
Solution: 35.4

Problem: Field entry: COC(=O)[C@H](Cc1ccccc1)NC(=O)c1ccc2c(c1)/C(=C/c1[nH]c(C)c(C(=O)N[C@@H](Cc3ccccc3)C(=O)OC)c1C)C(=O)N2
Solution: 28.9

Problem: Field entry: CCOC(=O)c1c(C)[nH]c(/C=C2\C(=O)Nc3ccc(C(=O)N[C@@H](Cc4ccccc4)C(=O)O)cc32)c1C
Solution: 90.9

Problem: Field entry: COC(=O)CC[C@H](NC(=O)c1c(C)[nH]c(/C=C2\C(=O)Nc3ccc(C(=O)N[C@@H](Cc4ccccc4)C(=O)OC)cc32)c1C)C(=O)OC
Solution: 57.3

Problem: Field entry: COC(=O)c1ccc2c(c1)/C(=C/c1[nH]c(C)c(C(=O)N[C@H](Cc3ccccc3)C(=O)O)c1C)C(=O)N2
Solution: 91

Problem: Field entry: Cc1[nH]c(/C=C2\C(=O)Nc3ccccc32)c(C)c1CCC(=O)O [ORANTINIB]
Solution: 76.7

Problem: Field entry: COC(=O)CC[C@H](NC(=O)c1ccc2c(c1)/C(=C/c1[nH]c(C)c(C(=O)N[C@H](Cc3ccccc3)C(=O)O)c1C)C(=O)N2)C(=O)OC
Solution: 70.3

Problem: Field entry: COC(=O)CC[C@@H](NC(=O)c1c(C)[nH]c(/C=C2\C(=O)Nc3ccc(C(=O)OC)cc32)c1C)C(=O)OC
Solution: 88.3

Problem: Field entry: CCOC(=O)c1c(C)[nH]c(/C=C2\C(=O)Nc3ccc(C(=O)N[C@H](CCC(=O)OC)C(=O)OC)cc32)c1C
Solution: 3.1

Problem: Field entry: COC(=O)[C@@H](Cc1ccccc1)NC(=O)c1ccc2c(c1)/C(=C/c1[nH]c(C)c(C(=O)N[C@H](Cc3ccccc3)C(=O)O)c1C)C(=O)N2
Solution: 28.9

Problem: Field entry: COC(=O)CC[C@H](NC(=O)c1ccc2c(c1)/C(=C/c1[nH]c(C)c(C(=O)N[C@H](CCC(=O)OC)C(=O)OC)c1C)C(=O)N2)C(=O)OC
Solution: 43.2

---

Assay: Lipophilicity, chromatographic hydrophobicity index of the compound at pH 5.5 by HPLC method
Type: physicochemical
Details: buffer
If the reported CHI equals or exceeds 60, assign class 1. If not, assign class 0.

1. Cc1[nH]c(/C=C2\C(=O)Nc3ccc(C(=O)N[C@@H](Cc4ccccc4)C(=O)O)cc32)c(C)c1C(=O)N[C@@H](Cc1ccccc1)C(=O)O :: class 0
2. COC(=O)CC[C@H](NC(=O)c1c(C)[nH]c(/C=C2\C(=O)Nc3ccc(C(=O)O)cc32)c1C)C(=O)OC :: class 0
3. COC(=O)c1ccc2c(c1)/C(=C/c1[nH]c(C)c(C(=O)N[C@@H](Cc3ccccc3)C(=O)O)c1C)C(=O)N2 :: class 0
4. COC(=O)CC[C@H](NC(=O)c1ccc2c(c1)/C(=C/c1[nH]c(C)c(C(=O)N[C@@H](Cc3ccccc3)C(=O)O)c1C)C(=O)N2)C(=O)OC :: class 0
5. COC(=O)[C@H](Cc1ccccc1)NC(=O)c1ccc2c(c1)/C(=C/c1[nH]c(C)c(C(=O)N[C@@H](Cc3ccccc3)C(=O)OC)c1C)C(=O)N2 :: class 1
6. COC(=O)CC[C@H](NC(=O)c1ccc2c(c1)/C(=C/c1[nH]c(C)c(C(=O)N[C@@H](CCC(=O)OC)C(=O)OC)c1C)C(=O)N2)C(=O)OC :: class 1
7. CCN(CC)CCNC(=O)c1c(C)[nH]c(/C=C2\C(=O)Nc3ccc(F)cc32)c1C :: class 0
8. Cc1[nH]c(/C=C2\C(=O)Nc3ccc(C(=O)O)cc32)c(C)c1C(=O)N[C@@H](Cc1ccccc1)C(=O)O :: class 0

Problem: Please indicate if the recorded CHI for CCOC(=O)c1c(C)[nH]c(/C=C2\C(=O)Nc3ccc(C(=O)N[C@@H](CCC(=O)OC)C(=O)OC)cc32)c1C meets or exceeds 60.
Solution: class 1

Problem: Field entry: CCOC(=O)c1c(C)[nH]c(/C=C2\C(=O)Nc3ccc(C(=O)N[C@@H](Cc4ccccc4)C(=O)OC)cc32)c1C
Solution: class 1

Problem: Field entry: COC(=O)[C@H](Cc1ccccc1)NC(=O)c1ccc2c(c1)/C(=C/c1[nH]c(C)c(C(=O)O)c1C)C(=O)N2
Solution: class 1

Problem: Field entry: COC(=O)CC[C@H](NC(=O)c1ccc2c(c1)/C(=C/c1[nH]c(C)c(C(=O)N[C@@H](Cc3ccccc3)C(=O)OC)c1C)C(=O)N2)C(=O)OC
Solution: class 1

---

Conditions: buffer, pH 10.5
Description: Lipophilicity, chromatographic hydrophobicity index of the compound at pH 10.5 by HPLC method
Friendly reminder: CHI below 60 is true, at or above is false.

Examples from the recorded data:
1) Cc1[nH]c(/C=C2\C(=O)Nc3ccc(C(=O)N[C@@H](Cc4ccccc4)C(=O)O)cc32)c(C)c1C(=O)O :: true
2) COC(=O)CC[C@H](NC(=O)c1ccc2c(c1)/C(=C/c1[nH]c(C)c(C(=O)N[C@@H](Cc3ccccc3)C(=O)OC)c1C)C(=O)N2)C(=O)OC :: false
3) COC(=O)CC[C@H](NC(=O)c1ccc2c(c1)/C(=C/c1[nH]c(C)c(C(=O)O)c1C)C(=O)N2)C(=O)OC :: true
4) COC(=O)CC[C@H](NC(=O)c1c(C)[nH]c(/C=C2\C(=O)Nc3ccc(C(=O)O)cc32)c1C)C(=O)OC :: true

Problem: Dear colleague, could you confirm whether CHI of COC(=O)[C@H](Cc1ccccc1)NC(=O)c1ccc2c(c1)/C(=C/c1[nH]c(C)c(C(=O)N[C@@H](Cc3ccccc3)C(=O)O)c1C)C(=O)N2 falls below 60? Thanks.
Solution: true

---

Reported solubility at 24 h, 120 µM values follow for various compounds
Test: Aqueous solubility in pH 5.5 phosphate buffer at 120 uM after 24 hrs by HPLC method
Assay type: physicochemical
Details: phosphate buffer, pH 5.5

Problem: Quick one: solubility at 24 h, 120 µM of Cc1[nH]c(/C=C2\C(=O)Nc3ccc(C(=O)N[C@@H](Cc4ccccc4)C(=O)O)cc32)c(C)c1C(=O)O ?
Solution: < 5 µM

---

Test: Lipophilicity, chromatographic hydrophobicity index of the compound at pH 5.5 by HPLC method
Type: physicochemical
Details: buffer
Reported CHI values follow for various compounds
Respond with the number and no other words.

1) CCOC(=O)c1c(C)[nH]c(/C=C2\C(=O)Nc3ccc(C(=O)N[C@@H](Cc4ccccc4)C(=O)O)cc32)c1C :: 61
2) Cc1[nH]c(/C=C2\C(=O)Nc3ccccc32)c(C)c1CCC(=O)O [ORANTINIB] :: 59

# next compound below
Problem: Quick one: CHI of COC(=O)[C@H](Cc1ccccc1)NC(=O)c1c(C)[nH]c(/C=C2\C(=O)Nc3ccc(C(=O)O)cc32)c1C ?
Solution: 59
